assay: Cmax in […] infection patient at 400 mg, po administered daily after 36 days of drug therapy and 30 days of rifampin coadministration; format: ADME, organism-based; set-up: dose 400 mg, route oral; details: human, in vivo
measurementType: Cmax

1) C[C@@H](c1ncncc1F)[C@](O)(Cn1cncn1)c1ccc(F)cc1F : 38 ng/mL
